# test details: Probe fluorescence ratio response to linolenic acid relative to ADIFAB2
# Format: binding
# assay setup: response relative to ADIFAB2
# From the text: In an alternate preferred embodiment, the protein is rI-FABP that has Ala substituted for Leu at position 72 (rI-FABP-L72A) with the resulting probe named ADIFAB2. […] ADIFAB2 also has an altered spectral response, making it especially useful for measurements of FFAu in blood samples (Apple et al, Clinical Proteomics, (2004) 1:41-44, U.S. patent application Ser. No. 10/670,958). […] The baseline value for this ratio, measured in the absence of analyte, is designated R0. […]
Reported DR/DR LNA values are given for each entry in this list.

| molecule | DR/DR LNA |
| --- | --- |
| 70H, 72A (protein, listed as Rattus norvegicus, PEPTIDE (1)...(131) wild-type rat intestinal fatty acid binding protein) AFDGTWKVDRNENYEKFMEKMGINVVKRKLGAHDNLKLTITQEGNKFTVKESSNFRNIDVVFELGVDFAHSAADGTELTGTWTMEGNKLVGKFKRVDNGKELIAVREISGNELIQTYTYEGVEAKRIFKKE | 0.886 |
| 17R, 72A (protein, listed as Rattus norvegicus, PEPTIDE (1)...(131) wild-type rat intestinal fatty acid binding protein) AFDGTWKVDRNENYEKRMEKMGINVVKRKLGAHDNLKLTITQEGNKFTVKESSNFRNIDVVFELGVDFAYSAADGTELTGTWTMEGNKLVGKFKRVDNGKELIAVREISGNELIQTYTYEGVEAKRIFKKE | 0.48 |
| 106S, 72A (protein, listed as Rattus norvegicus, PEPTIDE (1)...(131) wild-type rat intestinal fatty acid binding protein) AFDGTWKVDRNENYEKFMEKMGINVVKRKLGAHDNLKLTITQEGNKFTVKESSNFRNIDVVFELGVDFAYSAADGTELTGTWTMEGNKLVGKFKRVDNGKELIAVSEISGNELIQTYTYEGVEAKRIFKKE | 0.403 |
| 55N1, 72A (protein, listed as Rattus norvegicus, PEPTIDE (1)...(131) wild-type rat intestinal fatty acid binding protein) AFDGTWKVDRNENYEKFMEKMGINVVKRKLGAHDNLKLTITQEGNKFTVKESSNNRNIDVVFELGVDFAYSAADGTELTGTWTMEGNKLVGKFKRVDNGKELIAVREISGNELIQTYTYEGVEAKRIFKKE | 0.30 |
| 102E, 72A (protein, listed as Rattus norvegicus, PEPTIDE (1)...(131) wild-type rat intestinal fatty acid binding protein) AFDGTWKVDRNENYEKFMEKMGINVVKRKLGAHDNLKLTITQEGNKFTVKESSNFRNIDVVFELGVDFAYSAADGTELTGTWTMEGNKLVGKFKRVDNGKEEIAVREISGNELIQTYTYEGVEAKRIFKKE | 0.89 |
| 104R1, 72A (protein, listed as Rattus norvegicus, PEPTIDE (1)...(131) wild-type rat intestinal fatty acid binding protein) AFDGTWKVDRNENYEKFMEKMGINVVKRKLGAHDNLKLTITQEGNKFTVKESSNFRNIDVVFELGVDFAYSAADGTELTGTWTMEGNKLVGKFKRVDNGKELIRVREISGNELIQTYTYEGVEAKRIFKKE | 1.13 |

Entry source: patent US20060257938A1
